Source listed as ChEMBL document CHEMBL1155182.

Parameter 'readout' = IC50; parameter 'system' = Histone deacetylase 7 (Homo sapiens).
assay.readout: IC50 (µM)

a = CC(C(=O)NO)(c1ccccc1)c1ccccc1
b = O=C(NO)C(c1ccc(Cl)cc1)c1ccc(Cl)cc1
Req: Given the listed records, identify the one among a and b with higher IC50. Returns: label corresponding to the selected item.
Resp: a
(a: 4.8 µM, b: 1.4 µM)

---

Parameter 'readout' = IC50; parameter 'system' = Histone deacetylase 4 (Homo sapiens).
Sequence (P56524 whole entry): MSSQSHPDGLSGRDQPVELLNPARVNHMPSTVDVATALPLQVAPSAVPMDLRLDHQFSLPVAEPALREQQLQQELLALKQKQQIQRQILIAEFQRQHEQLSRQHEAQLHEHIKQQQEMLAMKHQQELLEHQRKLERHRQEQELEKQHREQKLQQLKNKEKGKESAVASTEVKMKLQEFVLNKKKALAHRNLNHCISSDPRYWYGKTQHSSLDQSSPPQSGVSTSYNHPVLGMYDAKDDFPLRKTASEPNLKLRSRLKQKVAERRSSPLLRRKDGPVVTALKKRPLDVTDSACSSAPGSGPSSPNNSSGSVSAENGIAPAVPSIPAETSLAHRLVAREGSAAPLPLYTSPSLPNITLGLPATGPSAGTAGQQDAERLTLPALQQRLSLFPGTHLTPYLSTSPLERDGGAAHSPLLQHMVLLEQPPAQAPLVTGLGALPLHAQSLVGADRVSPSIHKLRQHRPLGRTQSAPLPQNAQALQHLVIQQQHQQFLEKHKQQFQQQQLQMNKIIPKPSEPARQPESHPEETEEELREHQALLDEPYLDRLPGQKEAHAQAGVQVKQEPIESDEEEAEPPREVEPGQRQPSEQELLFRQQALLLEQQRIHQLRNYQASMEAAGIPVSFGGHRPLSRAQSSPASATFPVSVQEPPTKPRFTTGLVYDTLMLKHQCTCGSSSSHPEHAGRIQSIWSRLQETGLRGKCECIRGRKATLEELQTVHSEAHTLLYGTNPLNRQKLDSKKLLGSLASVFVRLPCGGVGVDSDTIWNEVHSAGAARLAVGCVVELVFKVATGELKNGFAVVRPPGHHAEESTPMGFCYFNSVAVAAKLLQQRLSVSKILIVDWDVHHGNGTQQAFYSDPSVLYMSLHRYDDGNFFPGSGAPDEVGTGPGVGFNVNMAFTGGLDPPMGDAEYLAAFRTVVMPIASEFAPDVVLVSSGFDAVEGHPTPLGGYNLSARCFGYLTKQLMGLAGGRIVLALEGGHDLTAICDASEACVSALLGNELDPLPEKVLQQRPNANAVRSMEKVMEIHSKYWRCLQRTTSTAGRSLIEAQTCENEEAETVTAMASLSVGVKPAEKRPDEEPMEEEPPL
assay.readout: IC50 (nM)

O=C(NO)C(c1ccc(F)cc1)c1ccc(F)cc1 | 1100

A = O=C(NO)C(c1ccc(Cl)cc1)c1ccc(Cl)cc1
B = O=C(NO)C(c1ccc2c(c1)CCO2)c1ccc2c(c1)CCO2
C = CN1c2ccccc2C(C(=O)NO)c2ccccc21
Req: Arrange the 3 entries by IC50 so the values rise. Field: ranking. Enter the labels in the order requested.
Resp: B, A, C

---

Parameter 'readout' = IC50; parameter 'system' = Histone deacetylase 5 (Homo sapiens, UniProt Q9UQL6).
Sequence (Q9UQL6 whole entry): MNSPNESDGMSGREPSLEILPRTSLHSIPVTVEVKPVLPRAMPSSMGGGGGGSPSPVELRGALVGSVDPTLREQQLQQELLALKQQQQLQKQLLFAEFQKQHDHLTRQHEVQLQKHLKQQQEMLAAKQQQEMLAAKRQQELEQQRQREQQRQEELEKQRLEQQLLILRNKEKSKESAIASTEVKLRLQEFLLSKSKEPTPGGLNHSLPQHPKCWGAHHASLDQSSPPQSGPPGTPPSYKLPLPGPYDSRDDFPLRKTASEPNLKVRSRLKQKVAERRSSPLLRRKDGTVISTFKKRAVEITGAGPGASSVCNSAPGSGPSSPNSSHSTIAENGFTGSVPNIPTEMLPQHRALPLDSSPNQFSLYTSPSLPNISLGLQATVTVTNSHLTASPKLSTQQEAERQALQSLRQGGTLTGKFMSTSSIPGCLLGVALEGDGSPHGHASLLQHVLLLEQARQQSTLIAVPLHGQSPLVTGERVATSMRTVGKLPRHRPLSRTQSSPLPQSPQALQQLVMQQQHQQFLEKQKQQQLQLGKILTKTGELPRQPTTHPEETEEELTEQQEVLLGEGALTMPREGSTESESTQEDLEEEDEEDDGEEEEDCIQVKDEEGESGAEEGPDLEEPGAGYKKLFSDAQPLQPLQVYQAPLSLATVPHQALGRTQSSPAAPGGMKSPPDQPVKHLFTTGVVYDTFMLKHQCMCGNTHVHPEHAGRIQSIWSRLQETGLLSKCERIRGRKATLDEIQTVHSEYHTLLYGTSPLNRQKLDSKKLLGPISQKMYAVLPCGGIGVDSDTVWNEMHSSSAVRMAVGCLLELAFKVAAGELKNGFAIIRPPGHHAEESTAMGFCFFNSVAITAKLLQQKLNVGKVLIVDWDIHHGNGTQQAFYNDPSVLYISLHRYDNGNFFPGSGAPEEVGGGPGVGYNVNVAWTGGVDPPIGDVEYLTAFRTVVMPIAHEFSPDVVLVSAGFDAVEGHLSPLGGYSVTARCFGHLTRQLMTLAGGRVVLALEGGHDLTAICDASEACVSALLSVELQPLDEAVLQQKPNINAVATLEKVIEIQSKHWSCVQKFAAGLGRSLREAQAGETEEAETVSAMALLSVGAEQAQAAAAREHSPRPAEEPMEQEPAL

O=C(NO)C(Cc1ccccc1)c1ccccc1 (stereo not drawn) | > 10 µM
O=C(CC(c1ccccc1)c1ccccc1)NO | > 10 µM

Req: Entry CC(C(=O)NO)c1ccccc1 (stereo not drawn) , system Histone deacetylase 5 (Homo sapiens, UniProt Q9UQL6): what IC50 was measured?
Resp: > 10 µM

---

- study.target: Histone deacetylase 7 (Homo sapiens)
- Sequence (Q8WUI4 whole entry): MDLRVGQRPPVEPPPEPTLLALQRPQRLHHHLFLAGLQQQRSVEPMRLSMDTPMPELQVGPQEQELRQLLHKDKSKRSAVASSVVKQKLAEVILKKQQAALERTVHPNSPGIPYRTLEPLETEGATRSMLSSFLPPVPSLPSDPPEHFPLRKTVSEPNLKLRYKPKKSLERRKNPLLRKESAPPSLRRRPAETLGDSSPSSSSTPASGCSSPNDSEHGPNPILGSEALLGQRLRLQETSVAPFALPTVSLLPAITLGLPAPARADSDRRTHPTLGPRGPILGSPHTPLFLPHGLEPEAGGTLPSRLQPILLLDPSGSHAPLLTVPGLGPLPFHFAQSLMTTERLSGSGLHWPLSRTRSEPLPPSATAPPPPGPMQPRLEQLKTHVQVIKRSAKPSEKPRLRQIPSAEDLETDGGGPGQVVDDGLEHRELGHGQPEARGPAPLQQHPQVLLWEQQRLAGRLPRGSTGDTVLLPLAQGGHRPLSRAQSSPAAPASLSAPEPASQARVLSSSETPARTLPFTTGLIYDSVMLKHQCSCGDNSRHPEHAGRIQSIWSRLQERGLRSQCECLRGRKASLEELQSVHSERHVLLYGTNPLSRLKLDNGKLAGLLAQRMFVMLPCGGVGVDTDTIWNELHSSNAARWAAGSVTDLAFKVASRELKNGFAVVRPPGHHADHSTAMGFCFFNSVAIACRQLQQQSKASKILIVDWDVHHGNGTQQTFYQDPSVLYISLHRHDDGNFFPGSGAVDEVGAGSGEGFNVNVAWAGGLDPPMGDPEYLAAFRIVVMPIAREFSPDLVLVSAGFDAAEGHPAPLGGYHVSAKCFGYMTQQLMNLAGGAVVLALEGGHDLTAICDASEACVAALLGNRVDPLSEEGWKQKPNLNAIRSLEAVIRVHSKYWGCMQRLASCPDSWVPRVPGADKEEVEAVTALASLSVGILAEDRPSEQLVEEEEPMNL
pIC50: −log10 of the molar value.
assay.readout: pIC50

CS(=O)(=O)Nc1ccc(C(C(=O)NO)c2ccc(NS(C)(=O)=O)cc2)cc1 | < 5.00
O=C(NO)C(Cc1ccccc1)c1ccccc1 (stereo not drawn) | < 5.00

Turning now to a further record.
Req: Entry CC(C(=O)NO)c1ccccc1 (stereo not drawn) , system Histone deacetylase 7 (Homo sapiens): what pIC50 was measured?
Resp: < 5.00
